test: Primary qHTS for inhibitors of nuclear receptor binding SET domain protein 2 (NSD2) in an RCH-ACV wild type WT cells (2C) (AID 1645877); conditions: RCH-ACV (leukaemia line) NSD2 WT (2C) viability, CellTiter-Glo, 72 h; series mostly up to 44.9 µM; also: nearly all actives have a fitted effect of over 70% in size
Records with an inconclusive call do not appear. Active and inactive are the calls of the source. Calls follow the shape of the dose curve; as a rule, active = well fitted inhibition curve with a large enough effect; inconclusive = small, poorly fitted or top-dose-only effect; inactive = no such curve, though single readings can be large or run the other way. Where a SMILES comes first, the peptide text is derived from it. The star is where a group is joined. AFC = O=c1cc(C(F)(F)F)c2ccc(N*)cc2o1
Respond only with the outcome that fits, drawn from 1 (yes) for active, 0 (no) for inactive

Qu. So what was the verdict on C/C=C/C=C/C(=O)N1CC[C@]23c4ccccc4N[C@H]4N(C)c5cccc6c5[C@@]42CCN([C@H]6C2OC2(C)C)[C@H]13 (some centres undefined) in this test?
Ans. 0 (no)

Qu. Look up the recorded call for `COc1cccc(-c2cc(NCc3ccc4c(c3)OCO4)nc(N)n2)c1` in this test.
Ans. 1 (yes)

Qu. For CC(=O)N[C@@H](Cc1c[nH]c2ccccc12)C(=O)N[C@@H](CCC(=O)O)C(=O)N[C@@H](Cc1cnc[nH]1)C(=O)N[C@@H](CC(=O)O)C(=O)Nc1ccc2c(C(F)(F)F)cc(=O)oc2c1 (Ac-WEHD-{AFC}) , which call appears in the assay record?
Ans. 0 (no)

Qu. Please let me know the test result on file for CC1(C)C2CC(OC3OC(COC4OCC(O)(CO)C4O)C(O)C(O)C3O)C1(C)CC2O (centres undefined) .
Ans. 0 (no)
